meta.source: patent US20240301023A1

Biological target: Kappa opioid receptor (KOR) (Homo sapiens (Human), UniProt P41145 1-380)
Sequence (P41145 whole entry, form in doubt): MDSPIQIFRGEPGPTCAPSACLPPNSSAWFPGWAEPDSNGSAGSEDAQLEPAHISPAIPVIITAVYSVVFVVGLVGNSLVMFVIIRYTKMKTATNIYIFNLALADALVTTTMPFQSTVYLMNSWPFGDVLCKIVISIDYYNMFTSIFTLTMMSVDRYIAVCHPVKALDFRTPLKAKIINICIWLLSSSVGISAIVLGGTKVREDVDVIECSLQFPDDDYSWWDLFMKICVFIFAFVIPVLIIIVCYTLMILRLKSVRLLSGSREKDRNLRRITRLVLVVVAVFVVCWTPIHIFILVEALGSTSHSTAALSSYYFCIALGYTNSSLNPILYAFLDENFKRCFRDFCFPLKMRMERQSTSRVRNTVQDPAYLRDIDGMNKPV
Test: cell-based or functional assay
Square brackets hold non-standard residues; d marks the D form. Ends that are not written are not given here. Phe(4-NO2) = N[C@@H](Cc1ccc([N+](=O)[O-])cc1)C(=O)O; Api = NC1(C(=O)O)CCNCC1; GABA = NCCCC(=O)O; Sar = CNCC(=O)O
Classification field: enter 1.0 for cAMP assay (ALPHAScreen), result at 1 µM peptide values not below 20, 0.0 for values below it.

{"BINDER": "H-Y[Sar][Phe(4-NO2)]L[dR]R-NH2 [SEQ ID NO. 5: NH2-Tyr-Sar-(4-NO2)Phe-Leu-DArg-Arg-NH2]", "LABEL_VALUE": 1.0}
{"BINDER": "H-Y[GABA]FLRR-NH2 (SMILES CC(C)C[C@H](NC(=O)[C@H](Cc1ccccc1)NC(=O)CCCNC(=O)[C@@H](N)Cc1ccc(O)cc1)C(=O)N[C@@H](CCCNC(=N)N)C(=O)N[C@@H](CCCNC(=N)N)C(N)=O) [SEQ ID NO. 1: NH2-Tyr-Gaba-Phe-Leu-Arg-Arg-NH2]", "LABEL_VALUE": 0.0}
{"BINDER": "H-Y[Sar]FL[dR][dR]-NH2 [SEQ ID NO. 7: NH2-Tyr-Sar-Phe-Leu-DArg-DArg-NH2]", "LABEL_VALUE": 0.0}
{"BINDER": "H-Y[Sar]FLRR-NH2 [SEQ ID NO. 2: NH2-Tyr-Sar-Phe-Leu-Arg-Arg-NH2]", "LABEL_VALUE": 1.0}
{"BINDER": "[dF][dF][dL][dK][Api]-OH (N-terminus assumed; SMILES CC(C)C[C@@H](NC(=O)[C@@H](Cc1ccccc1)NC(=O)[C@H](N)Cc1ccccc1)C(=O)N[C@H](CCCCN)C(=O)NC1(C(=O)O)CCNCC1) [CR845 (SEQ ID NO. 35: DPhe-DPhe-DLeu-DLys-Cap-CO2H)]", "LABEL_VALUE": 1.0}
{"BINDER": "H-Y[Sar][Phe(4-NO2)]L[dK][dR]-NH2 [SEQ ID NO. 10: NH2-Tyr-Sar-(4-NO2)Phe-Leu-DLys-DArg-NH2]", "LABEL_VALUE": 0.0}
